molecular target: eIF2Bα (Homo sapiens, UniProt Q14232); construct: made in house; host or cells: E. coli BL21(DE3); test: MIDAS (mass spectrometry integrated with equilibrium dialysis) metabolite binding screen; settings: MIDAS screen, sheet eIF2Ba; metabolites screened in pools 1-4; p-value and q-value given
Sequence (Q14232 whole entry): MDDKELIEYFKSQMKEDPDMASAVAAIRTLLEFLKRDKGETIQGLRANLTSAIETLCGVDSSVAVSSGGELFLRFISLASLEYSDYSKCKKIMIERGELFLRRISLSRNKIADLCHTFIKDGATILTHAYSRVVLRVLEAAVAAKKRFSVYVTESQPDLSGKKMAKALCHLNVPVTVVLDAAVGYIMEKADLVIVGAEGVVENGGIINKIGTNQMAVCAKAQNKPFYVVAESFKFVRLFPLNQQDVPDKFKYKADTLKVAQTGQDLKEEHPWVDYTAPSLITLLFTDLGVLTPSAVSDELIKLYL
Label T when log2(corrected fold change) is at or above -0.09; otherwise label F.

[[record]]
compound = "CC(C)(COP(=O)(O)OP(=O)(O)OC[C@H]1O[C@@H](n2cnc3c(N)ncnc32)[C@H](O)[C@@H]1O)[C@@H](O)C(=O)NCCC(=O)NCCS"
study_system = "eIF2Bα (Homo sapiens, UniProt Q14232)"
label_value = "F"

[[record]]
compound = "O=c1[nH]c(=O)c2ncn([C@@H]3O[C@H](COP(=O)(O)O)[C@@H](O)[C@H]3O)c2[nH]1 [Xanthosine 5-monophosphate]"
study_system = "eIF2Bα (Homo sapiens, UniProt Q14232)"
label_value = "F"

[[record]]
compound = "O=C(O)C(O)c1ccccc1 (racemic)"
study_system = "eIF2Bα (Homo sapiens, UniProt Q14232)"
label_value = "T"

[[record]]
compound = "O=CNc1ccccc1C(=O)O"
study_system = "eIF2Bα (Homo sapiens, UniProt Q14232)"
label_value = "T"

